Data provenance: patent US11110158B2

- assay_method_text: Kinetics of blood sunitinib by LC/MS/MS in BALB/neuT mice with subcutaneous TUBO tumors
- Format: in vivo, mouse
- condition_summary: BALB/neuT, mouse, plasma, oral; 20 mg/kg SID orally; at 6 hrs; read-out: blood sunitinib level
endpoint_name: concentration at 6 h (ng/mL)

[[record]]
structure = "CCN(CC)CCNC(=O)c1c(C)[nH]c(/C=C2\\C(=O)Nc3ccc(F)cc32)c1C"
reported = 50


----------
- assay_method_text: Kinetics of blood sunitinib by LC/MS/MS in BALB/neuT mice with subcutaneous TUBO tumors
- Assay type: in vivo, mouse
- condition_summary: BALB/neuT, mouse, plasma, oral; 20 mg/kg SID orally; peak at 2 hrs; read-out: blood sunitinib level
endpoint_name: concentration at 2 h

[[record]]
compound = "CCN(CC)CCNC(=O)c1c(C)[nH]c(/C=C2\\C(=O)Nc3ccc(F)cc32)c1C [Sunitinib]"
endpoint_name = "concentration at 2 h"
reported = "> 50 ng/mL"


----------
- assay_method_text: Kinetics of blood sunitinib by LC/MS/MS in BALB/neuT mice with subcutaneous TUBO tumors
- Type: in vivo, mouse
- condition_summary: BALB/neuT, mouse, plasma, oral; 10 mg/kg BID (6 hr interval) orally; peak at 2 hrs; read-out: blood sunitinib level
endpoint_name: concentration at 2 h

[[record]]
structure = "CCN(CC)CCNC(=O)c1c(C)[nH]c(/C=C2\\C(=O)Nc3ccc(F)cc32)c1C"
endpoint_name = "concentration at 2 h"
reported = "> 50 ng/mL"


----------
- assay_method_text: Kinetics of blood sunitinib by LC/MS/MS in BALB/neuT mice with subcutaneous TUBO tumors
- Assay type: in vivo, mouse
- condition_summary: BALB/neuT, mouse, plasma, oral; 10 mg/kg BID orally; by 4 hrs; read-out: blood sunitinib level
endpoint_name: concentration at 4 h

[[record]]
structure = "CCN(CC)CCNC(=O)c1c(C)[nH]c(/C=C2\\C(=O)Nc3ccc(F)cc32)c1C"
reported = "< 50 ng/mL"

